- Assay System: Retinoic acid receptor RXR-alpha (Homo sapiens) (UniProt P19793)
- Sequence (P19793 whole entry, looked up): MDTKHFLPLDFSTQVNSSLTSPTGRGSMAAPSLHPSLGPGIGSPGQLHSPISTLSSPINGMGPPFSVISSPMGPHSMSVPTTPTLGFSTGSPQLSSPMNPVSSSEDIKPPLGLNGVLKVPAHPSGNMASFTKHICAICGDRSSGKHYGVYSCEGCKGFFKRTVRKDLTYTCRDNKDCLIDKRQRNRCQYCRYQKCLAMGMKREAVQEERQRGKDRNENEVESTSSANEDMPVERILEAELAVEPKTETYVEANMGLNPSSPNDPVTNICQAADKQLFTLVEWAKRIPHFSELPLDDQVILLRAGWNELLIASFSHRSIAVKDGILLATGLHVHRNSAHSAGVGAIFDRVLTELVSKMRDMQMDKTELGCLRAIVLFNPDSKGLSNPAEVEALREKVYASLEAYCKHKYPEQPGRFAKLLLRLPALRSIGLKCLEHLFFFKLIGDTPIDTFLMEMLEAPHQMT
- Experimental Details: qHTS assay to identify small molecule agonists of the RXR signaling pathway (AID 1159527); also: nearly all actives have a fitted effect of over 35% in size
- Study Conditions: HEK293T RXRa-UAS-bla, beta-lactamase ratio, 16 h; series mostly up to 76.8 µM
- Text: U.S. Tox21 Program National Center for Advancing Translational Sciences [NCATS] NIH Chemical Genomics Center [NCGC] U.S. Environmental Protection Agency [EPA] National Institutes of Environmental Health Sciences [NIEHS] National Toxicology Program [NTP] U.S. Food and Drug Administration [FDA] Tox21 Assay Overview: The Retinoid X receptor (RXR), a nuclear hormone receptor expressed in liver, spleen, placenta, epidermis, central nervous system. […]
Records with an inconclusive call do not appear. The source made the active and inactive calls. Calls follow the shape of the full dose curve.
One label from this list, please: t = active, f = inactive

Cc1cccc(C)c1NC1=NCCCS1	f
N#CC1(N=NC2(C#N)CCCCC2)CCCCC1	f
O=C1NC(=O)C(=O)C(=O)N1	f
OCCCl	t
CCCCCl	f
O=C(O)C(F)(F)C(F)(F)C(F)(F)C(F)(F)C(F)(F)C(F)(F)C(F)(F)C(F)(F)F	t
N#CC(C#N)=C(C#N)C#N	f

Switching to the query record.
What call does the record list for c1ccc2c(c1)sc1ccccc12 ?
f
